Molecular target: anti-METH monoclonal antibody (mAb) generated from mice immunized with (+)-METH HSMO9 BSA MCV
Test: mAb affinity
Test readout: pKd
One number for each entry, as −log10 of the molar value.

[in] I'd like to know its pKd. The molecule in question is CN[C@@H](C)Cc1ccccc1 [(+)-METH]
[out] 8.17

----------
Molecular target: anti-METH monoclonal antibody (mAb) generated from mice immunized with (+)-METH HSMO9 BSA MCV
Assay: mAb affinity
Test readout: Ki (nM)
Give bare numbers, in nM.

[in] I'd like to know its Ki. The molecule in question is CN[C@@H](C)Cc1ccc2c(c1)OCO2 [(+)-MDMA]
[out] 1.1
